# Read-out: CYP2C8 (gene 1558)
# measurementNotes: LTEA_HepaRG_CYP2C8: Life Technologies and Expression Analysis (LTEA) Assay for CYP2C8 using HepaRG (AID 2283483)
# conditionContext: mRNA level, 48 h; actives raise or lower the signal
Calls of active or inactive are those of the source. How the source made its calls: active means hit-call score of the fitted dose curve at least 0.9, where 1 is the maximum; inactive means score below 0.9.
Classes used: active, inactive

> print(dat)
                                    compound  discretelabel
 1                                    OB(O)O       inactive
 2  CCCN(CCC)c1c([N+](=O)[O-])cc(C(F)(F)F)c(N)c1[N+](=O)[O-]       inactive
 3  CCCCCOC(=O)COc1cc(N2C(=O)C3=C(CCCC3)C2=O)c(F)cc1Cl       inactive
 4  CCCCOC(=O)C(C)Oc1ccc(Oc2ccc(C(F)(F)F)cn2)cc1 (stereo unspecified)       inactive
 5  Cc1nn(C)c(Oc2ccccc2)c1C=NOCc1ccc(C(=O)OC(C)(C)C)cc1         active
 6             S=C([S-])NCCNC(=S)[S-].[Mn+2]         active
 7  CC1(C)C(C=C(Cl)Cl)C1C(=O)OCc1cccc(Oc2ccccc2)c1 (stereo unspecified)       inactive
 8             CC(C)(c1ccc(O)cc1)c1ccc(O)cc1       inactive
 9                   CCN(CC)C(=O)c1cccc(C)c1         active
10  CCC(C)OC(=O)N1CCCCC1CCO (stereo unspecified)       inactive
11  CCOC(=O)C(C)Oc1ccc(Oc2cnc3cc(Cl)ccc3n2)cc1 (stereo unspecified)       inactive
12               CN(C)C(=O)Nc1ccc(Cl)c(Cl)c1       inactive
13  C[C@]12C[C@H](O)[C@H]3[C@@H](CCC4=CC(=O)CC[C@@]43C)[C@@H]1CC[C@@H]2C(=O)CO         active
14         O=C(O)C1(C(=O)Nc2ccc(Cl)cc2Cl)CC1         active
15                     O=C(c1ccccc1)C1CCCCC1       inactive
16  CCCCOC(=O)[C@@H](C)Oc1ccc(Oc2ccc(C(F)(F)F)cn2)cc1       inactive
17  CC(=O)[C@H]1CC[C@H]2[C@@H]3CCC4=CC(=O)CC[C@]4(C)[C@H]3CC[C@]12C         active
18                                     COCCO       inactive
19  CCN(Cc1c(F)cccc1Cl)c1c([N+](=O)[O-])cc(C(F)(F)F)cc1[N+](=O)[O-]       inactive
20  CCOC(=O)C(C)Oc1ccc(Oc2nc3ccc(Cl)cc3o2)cc1 (stereo unspecified)       inactive
21                     COC(=O)c1ccccc1C(=O)O       inactive

----------
# measurementNotes: CCTE_Shafer_MEA_acute_burst_percentage_mean: CCTE's Neural Acute Assay for Percentage of Spikes in a Burst, Shafer Lab (AID 2284017)
Calls of active or inactive are those of the source. How the source made its calls: active means hit-call score of the fitted dose curve at least 0.9, where 1 is the maximum; inactive means score below 0.9.
Outcome codes: Yes for active, No for inactive

> print(dat)
                                   compound  discretelabel
1                            O=C(O)c1ccccc1             No
2  C#CCOC(=O)[C@@H](C)Oc1ccc(Oc2ncc(Cl)cc2F)cc1             No
3                                    OB(O)O             No
4  CC1(C)C(C=C(Cl)Cl)C1C(=O)OCc1cccc(Oc2ccccc2)c1 (stereo not given)            Yes
5                       N#CSCSc1nc2ccccc2s1            Yes
